# targetOrTestSystem: dopamine transporter (Rattus norvegicus)
# Sequence (P23977 whole entry): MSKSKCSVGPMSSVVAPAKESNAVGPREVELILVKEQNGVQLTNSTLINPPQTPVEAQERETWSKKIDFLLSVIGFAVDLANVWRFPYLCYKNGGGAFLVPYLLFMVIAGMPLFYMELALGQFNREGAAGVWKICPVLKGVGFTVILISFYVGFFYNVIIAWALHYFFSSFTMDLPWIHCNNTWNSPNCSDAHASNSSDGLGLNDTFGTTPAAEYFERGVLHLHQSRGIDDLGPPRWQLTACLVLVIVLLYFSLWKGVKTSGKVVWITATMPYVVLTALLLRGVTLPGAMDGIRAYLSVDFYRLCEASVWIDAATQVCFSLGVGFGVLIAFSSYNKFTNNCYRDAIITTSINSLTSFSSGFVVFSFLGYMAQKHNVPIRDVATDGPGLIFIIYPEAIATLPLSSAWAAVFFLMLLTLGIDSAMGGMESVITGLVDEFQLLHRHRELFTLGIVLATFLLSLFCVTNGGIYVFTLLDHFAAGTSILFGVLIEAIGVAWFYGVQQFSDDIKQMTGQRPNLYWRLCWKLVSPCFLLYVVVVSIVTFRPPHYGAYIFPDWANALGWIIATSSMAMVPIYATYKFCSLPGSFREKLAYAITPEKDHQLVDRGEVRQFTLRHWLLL
measuredQuantity: IC50

### Prompt Lab note: need IC50 with dopamine transporter (Rattus norvegicus) for entry `O=C1Nc2c(cc(-c3ccc(Cl)cc3)c3c2CCCC3)C1=NO` , please look it up.
### Response 140 nM

====

# targetOrTestSystem: 3H-dopamine uptake in striatal synaptosomes (Rattus norvegicus, UniProt P23977)
# Construct: Corpi striati from male Wistar rats (150-200 g) are homogenised; from tissue; host or cells: rat corpus striatum (male Wistar), P2 synaptosomal pellet
# Sequence (P23977 whole entry): as above
# procedureText: In vitro inhibition of 3H-dopamine (3H-DA) uptake in striatal synaptosomes
# Assay type: biochemical
measuredQuantity: pIC50
For clarity, pIC50 is expressed as the negative log10 of concentration in mol/L.

### Prompt Lab note: need pIC50 with 3H-dopamine uptake in striatal synaptosomes (Rattus norvegicus, UniProt P23977) for entry `O=C1Nc2c(cc(-c3ccc(Cl)cc3)c3c2CCCC3)C1=NO` , please look it up.
### Response 7.47

The origin of these recorded values is patent US20040063742A1.
